Assay: chemical genetic growth profiling, strain panel (AID 1159580);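 further: tested at 20 µM; growth read once vehicle control cultures reached saturation at 30 °C; 1 = growth at the plate median or of vehicle wells; lower values mean less growth of the strain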
Settings: S. cerevisiae deletion strains, growth OD, locus YNL071W, strain lat1, hits give low values
Hit rate of the full screen: of about 5,500 compounds, about 2,000 (36%) were called active. Another 18% or so got no clear call; they are omitted. This is one part of the list.
PROPERTY: normalized growth
Answer field: number only, no words.

Field request: normalized growth | item: "OCCN(CCO)c1nc(N2CCCCC2)c2nc(N(CCO)CCO)nc(N3CCCCC3)c2n1"
0.98

Same lookup for "NC(=O)N1c2ccccc2CC(=O)c2ccccc21" , please.
0.979

Now give it for "C=CCc1ccc2c(c1)OCO2" too.
1.03
